# MEASUREMENT_DESCRIPTION: binders of r(CAG) RNA repeats, primary screen, biochemical, fluorescence (AID 651821);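 also: 0% = DMSO alone and 100% = 100 µM mitoxantrone as full dye displacement; higher means more dye released from RNA so lower well fluorescence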
# RUN_PARAMETERS: r(CAG) RNA repeat, TO-PRO-1 dye displacement fluorescence; at 3 µM; hits give high values
Among all 370,000 compounds or so, about 4,700 (1.3%) were called active. For the sample, actives were picked, then their nearest neighbours and some compounds at random.
Classification field: enter fulfilled for inhibition values not below 0.8%, not fulfilled for values below it.

Completed entries (count: 4):
O=C(C=CC(=O)Nc1ccc(F)cc1F)Nc1ccc(F)cc1F; not fulfilled
Clc1ccc(-n2c(COc3ccccc3)nnc2SCc2nc3ccccc3[nH]2)cc1; fulfilled
Cc1ccc(CSc2nnc(SCC(=O)NN=Cc3cc(Br)ccc3F)s2)cc1; fulfilled
CCOC(CNC(=O)C1CCN(S(=O)(=O)c2ccc3nc4c(c(C(=O)O)c3c2)CC(C)CC4)CC1)OCC (stereo not given); fulfilled

From here, focus on the item given below.
Please tell me: is the molecule `COC(=O)[C@]12C[C@H](CC(=O)NCCc3ccccc3OC)C(=O)N(Cc3ccccc3)C1=C[C@H](C(C)C)O[C@@H]2C1CC1` at or over 0.8% in terms of inhibition?
not fulfilled

###

# MEASUREMENT_DESCRIPTION: binders of r(CAG) RNA repeats, primary screen, biochemical, fluorescence (AID 651821);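 also: 0% = DMSO alone and 100% = 100 µM mitoxantrone as full dye displacement; higher means more dye released from RNA so lower well fluorescence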
# RUN_PARAMETERS: r(CAG) RNA repeat, TO-PRO-1 dye displacement fluorescence; at 3 µM; hits give high values
Screen size: about 370,000 compounds; about 4,700 (1.3%) were called active. Shown is part of a subset that was picked to be rich in actives.
Recorded inhibition, one value per entry.
Expressed in %, but write only the number.

O=C(NCc1ccc(Cl)cc1)C1CCCN(c2nc3ccccc3o2)C1 (centres undefined); 5.58
O=S1(=O)c2ccc(Br)cc2OC[C@@H](Cc2ccccc2)N1Cc1cn(Cc2ccco2)nn1; 4.58
COc1ccc(S(=O)(=O)NCCc2c[nH]c3ccccc23)cc1OC; 35.2

Note inhibition for the molecule shown: `C=CCN1C(=O)[C@@H](CC(=O)NCC2CCCCC2)[C@]2(C(=O)OC)CCCCC=C12`
2.39

Note inhibition for the molecule shown: `Cc1ccc(C)c(-n2c(SCC(=O)O)nc3sc4c(c3c2=O)CCCC4)c1`
27.1

Note inhibition for the molecule shown: `O=C(N1CCOCC1)N1CC[C@H]2[C@H](CCCN2Cc2ccc(F)cc2)C1`
-0.35

Note inhibition for the molecule shown: `COC(=O)[C@]12C[C@H](CC(=O)N3CCN(C(=O)C4CC4)CC3)C(=O)N(CCC3=CCCCC3)C1=C[C@H](C(C)C)O[C@@H]2C1CC1`
3.85

Note inhibition for the molecule shown: `CCOC(=O)[C@]12CCCCC/C=C\1N(Cc1ccc(OC)cc1)C(=O)[C@H]2CC(=O)NCCCN1CCCC1=O`
0.52

Note inhibition for the molecule shown: `Cc1ccc(S(=O)(=O)N(C)CC(=O)NCCc2c[nH]c3ccccc23)cc1`
0.8

Note inhibition for the molecule shown: `CC(=O)N1C[C@@H](CO)[C@@H](N(C)C(=O)C(C)(C)C)C[C@H]1c1ccccc1Br`
-1.82

###

# MEASUREMENT_DESCRIPTION: binders of r(CAG) RNA repeats, primary screen, biochemical, fluorescence (AID 651821);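 also: 0% = DMSO alone and 100% = 100 µM mitoxantrone as full dye displacement; higher means more dye released from RNA so lower well fluorescence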
# RUN_PARAMETERS: r(CAG) RNA repeat, TO-PRO-1 dye displacement fluorescence; at 3 µM; hits give high values
The whole screen tested about 370,000 compounds, of which about 4,700 (1.3%) were called active. This is one part of a sample in which actives are shown more often than they occur.
MEASURED_PROPERTY: inhibition (%)
Expressed in %, but write only the number.

Below, each entry is followed by its recorded inhibition result.
CCc1nn(CCCC(=O)NC(C)c2ccccc2)c(=O)c2cc3occc3n12 (stereo not given); -1.26
O=C1c2cccc3cc(Br)cc(c23)C(=O)N1Nc1ccccc1; 36.1
COc1ccc(NC(=O)CC2COc3ccccc3O2)c(OC)c1 (stereo not given); -0.79
Cc1nnc(SC(C(=O)Nc2cc(Cl)cc(Cl)c2)c2ccccc2)[nH]c1=O (stereo not given); 80.2
O=S1(=O)c2c(NCc3ccco3)cccc2Oc2ccccc2CN1Cc1cn(Cc2cccc(C(F)(F)F)c2)nn1; 13.6
COc1ccc(OC)c(-n2cc3c(=O)n(C)c(=O)n(C)c3c2)c1; 2.65
O=C1c2cccc3cccc(c23)C(=O)N1c1cccc(O)c1; 4.62
C=CCNc1nc(N)c(C(=C(C#N)C#N)c2ccccc2)s1; 35.8

Here is another compound to look at.
Note inhibition for the compound shown: `O=[N+]([O-])c1cc(Cl)cc(/C=N/NC(=S)Nc2cc(S(=O)(=O)N3CCOCC3)ccc2Cl)c1O`
37.7
